Numbers sourced from the supplement of paper PMC9732359.

Assay: protein stability index of a GFP-peptide fusion (yeast GPS) (PSI 1-4); higher = more stable; sorted into four equal gates, so the index is relative within each strain
Details: ubr1∆
Measured protein stability index, listed per entry.
Reported Property: protein stability index

INSERT INTO results (macromolecule_sequence, result) VALUES
  ('RSLLLSRVRADDLSTRF [RRP43]', 2.92),
  ('PEGLLKSLWDYVKKNTE [TAF14]', 3.13),
  ('LLYLRLKNIYVSADDFV [PRP8]', 1.16),
  ('NLYDDVKCWSKFIEKFQ [MED1]', 3.58),
  ('GKGIKLSIAEERDRRRA [RPS4A]', 3.23),
  ('MALKKNTHNKSTKRVTK [POP7]', 2.84),
  ('ASTPSIRPDGRLPHQFR [RRP42]', 2.99),
  ('YKVENVTLYWNNAKLLT [ESC2]', 2.19),
  ('VTALEVLSLGRPNLPTH [RGR1]', 2.33),
  ('NIVKQNEGIDLDTYRER [SMC2]', 3.41),
  ('LSNSNRFELHGDMTNSD [REC8]', 2.7),
  ('LNRSHFATTKAECISLI [ECM29]', 1.66),
  ('LMISPKDEETTEKARLI [RRI2]', 3.04),
  ('INIDDLLYELTAFKATV [YJL039C/NUP192]', 2.44),
  ('QNENLPSDKSDSMVDKE [SSN2]', 2.57),
  ('MPLKILLATKQHDSSAN [CSN12]', 2.27),
  ('KPYSGKLLKVCLTMFED [ECM29]', 2.36);
